target: human cannabinoid receptor 1 (huCB1), full length, expressed on cells (human, UniProt P21554 1-472); test: cell-based or functional assay
Sequence (P21554 whole entry): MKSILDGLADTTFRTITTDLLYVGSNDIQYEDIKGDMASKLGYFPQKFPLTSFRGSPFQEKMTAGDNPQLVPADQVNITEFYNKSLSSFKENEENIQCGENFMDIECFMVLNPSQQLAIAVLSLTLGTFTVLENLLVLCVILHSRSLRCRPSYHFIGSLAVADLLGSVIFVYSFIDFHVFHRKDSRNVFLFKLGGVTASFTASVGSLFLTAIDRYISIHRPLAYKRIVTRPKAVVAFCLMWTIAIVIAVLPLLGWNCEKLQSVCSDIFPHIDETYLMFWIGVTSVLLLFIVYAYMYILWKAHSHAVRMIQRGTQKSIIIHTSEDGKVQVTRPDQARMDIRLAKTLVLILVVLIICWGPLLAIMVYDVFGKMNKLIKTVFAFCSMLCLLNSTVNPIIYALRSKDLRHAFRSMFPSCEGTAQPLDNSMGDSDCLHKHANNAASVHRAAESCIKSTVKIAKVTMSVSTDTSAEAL
Threshold-based label: Mean IC50 (nM), cAMP antagonist assay under 6 nM gives Met, Mean IC50 (nM), cAMP antagonist assay not under 6 nM gives Not met.

Dear reviewer, please state whether LIBC523596-1 (antibody, V domains shown) VH: QVQLQESGPGLVKPSQTLSLTCTVSGGSIRRGGDYWSWIRQHPGKGLEWIGHVYQSGQTAYNPNFEDRATISVNTYKNQFSLKLSSVTAADTAVYYCAREYDVVSGYSYYYYGMDVWGQGTTVTVSS VL: DIVMTQSPLSLPVTPGEPASISCRSSQSLLTSSGYNYVDWYLQKPGQSPQLLIYQGSNRASGVPDRFSGSGSGTDFTLKISRVEAEDVGVYYCMQAVKIPRTFGQGTKVEIKR has Mean IC50 (nM), cAMP antagonist assay strictly beneath 6 nM. Not met

Dear reviewer, please state whether LIBC528116-1 (antibody, V domains shown, Expressed as IgG1 SEFL2 mAb; also called 37940-4) VH: QVQLQESGPGLVKPSQTLSLTCTVSGGSIRRGGDYWAWIRQHPGKGLEWIGHVYYTGSTNYNPRFKDRATISVNTYKNQFSLKLSSVTAADTAVYYCARNYDTVTGYSYYYYGMDVWGQGTTVTVSS VL: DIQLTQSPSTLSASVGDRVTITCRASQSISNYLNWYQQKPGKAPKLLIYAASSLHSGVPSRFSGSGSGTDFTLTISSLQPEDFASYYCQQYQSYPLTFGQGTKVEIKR has Mean IC50 (nM), cAMP antagonist assay strictly beneath 6 nM. Met

Dear reviewer, please state whether LIBC528141-1 (antibody, V domains shown) VH: QVQLQESGPGLVKPSQTLSLTCTVSGGSIRRGGDYWSWIRQHPGKGLEWIGHVYQTGSTKYNPRFKGRATISVNTYKNQFSLKLSSVTAADTAVYYCARDYDILTGYSYYYYGMDVWGQGTTVTVSS VL: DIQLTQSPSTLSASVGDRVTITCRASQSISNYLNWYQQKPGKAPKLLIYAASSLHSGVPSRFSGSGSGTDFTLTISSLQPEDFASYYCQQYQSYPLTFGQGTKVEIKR has Mean IC50 (nM), cAMP antagonist assay strictly beneath 6 nM. Met

Dear reviewer, please state whether LIBC523868-1 (antibody, V domains shown) VH: QVQLQESGPGLVKPSQTLSLTCTVSGGSIRRGGDYWSWIRQHPGKGLEWIGHVYYEGSTAYNPSFEDRATISVNTYKNQFSLKLSSVTAADTAVYYCARDYDILTGYSYYYYGMDVWGQGTTVTVSS VL: DIVMTQSPLSLPVTPGEPASISCRSSQSLLTSYGINYVDWYLQKPGQSPQLLIYLGSNRASGVPDRFSGSGSGTDFTLKISRVEAEDVGVYYCMQARQIPRTFGQGTKVEIKR has Mean IC50 (nM), cAMP antagonist assay strictly beneath 6 nM. Not met
